Kindly state PBM binding z-score for each of the entries shown.
tested on: RXRa DBDmut IVT, anti-RXR (DBD mutation: RXRa K156A/R161A, NR concentration 90 nM); assay: PBM binding z-score (relative to random genomic background probes); higher = stronger binding; sequences stand for … in GC…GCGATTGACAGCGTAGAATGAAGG

q: Dear colleague, please send me the reported PBM binding z-score for TCGAGTAGGTTAGTCGCGGCATTCAGCCAACATA when you can.
a: -0.209

q: Return PBM binding z-score for the following sequence: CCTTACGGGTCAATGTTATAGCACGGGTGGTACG
a: 0.842

q: Specify reported PBM binding z-score for the sequence shown: CCTTACGGATCAAGGTTATAGCACGGGTGGTACG
a: -0.178

q: Report PBM binding z-score for ACAGACAGGTGATGAAGGTCACTCAGGCTATCAT
a: 0.355

q: # return recorded PBM binding z-score for entry CCTACTGGGCCAAAAAGGTCATCGATGCCGATAA
a: 0.518

q: Give the value of PBM binding z-score reported for the following: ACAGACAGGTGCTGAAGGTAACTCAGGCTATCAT
a: -0.376

q: Kindly indicate its recorded PBM binding z-score. Item: TAGCCTAGGTCATGCGGTCCAGTATAGTGTCGGC
a: 1.05

q: # return recorded PBM binding z-score for entry GGAACGAGGGCAAAGTTGATAGCCTCTGTCGACG
a: 2.49

q: Entry CCTCTGAGGACAACAGGAGGTCAGAGCTGCCAGA needs its PBM binding z-score filled in; supply it.
a: 1.29

q: Give recorded PBM binding z-score. CGAACGAGGGCGTGAGTTGATAGCAAATGCCGAT
a: 1.36

q: Consider the sequence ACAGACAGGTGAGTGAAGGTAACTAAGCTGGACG . State its measured PBM binding z-score.
a: -0.523

q: Tell me its PBM binding z-score given ATCTCTACGTAAAGATAGTTCAGTGAATGCAAAT as the entry.
a: 0.102

---

test system: RXRa DBDmut IVT, anti-RXR (DBD mutation: RXRa K156A/R161A, NR concentration 90 nM); test: PBM binding z-score (relative to random genomic background probes); higher = stronger binding; sequences stand for … in GC…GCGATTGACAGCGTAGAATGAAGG
Could you please report measured PBM binding z-score for the items listed next?

q: Specify PBM binding z-score for TCTTGTAGTTCAAAGGTTAAGAAAGCCGAAGCCT and stop.
a: 2.69

q: Fill in reported PBM binding z-score for this entry: CCTCGGAGGACAGAAGGTGAGAGCTGTCCGCTTT
a: -0.26

q: Read off the recorded PBM binding z-score for TCTCGGAGGACACGAAAGGTCAGATCTCGACATC
a: 1.53

q: Look up and report measured PBM binding z-score for this entry: GATACAGGGTCAAGGCGAGAGTACGCGTATTGAT
a: 2.77

q: Give the reported PBM binding z-score for this sequence. TCATATAGGTAAACAGGTGAAAGTCCGTAAGTTA
a: 1.68

q: Give recorded PBM binding z-score. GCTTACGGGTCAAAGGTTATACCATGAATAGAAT
a: 2.59

---

Answer each item with its documented PBM binding z-score.
system: RARa homodimer (NR concentration 270 nM); assay: PBM binding z-score (relative to random genomic background probes); higher = stronger binding; sequences stand for … in GC…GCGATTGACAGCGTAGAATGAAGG
Could you respond with only the numeric value?

q: Give reported PBM binding z-score for ATCGAAAGGTCGATGGTGAGTATACCCACCCGAA (RARa homodimer (NR concentration 270 nM))
a: 0.322

q: Tell me its PBM binding z-score on RARa homodimer (NR concentration 270 nM): ACTAGTTGGTCAGCTGAGGTGACACACAATTCGG
a: -0.129

q: Give the observed PBM binding z-score of ACTATTAGTTGAGACGATGGCAACCGATAGGTTG for RARa homodimer (NR concentration 270 nM).
a: 0.657

q: For RARa homodimer (NR concentration 270 nM), give the measured PBM binding z-score of the entry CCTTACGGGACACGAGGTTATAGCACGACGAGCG
a: 0.721

q: // fetch PBM binding z-score for TCATATAGGTAAAGGTGAAGGTCGAACGATATGA ; system: RARa homodimer (NR concentration 270 nM)
a: 0.708

q: For RARa homodimer (NR concentration 270 nM), give PBM binding z-score of the listed sequence: CCGACTCGGGCAGAAAGGTTACCATACCATCCGG
a: -0.25

q: Fill in: PBM binding z-score on RARa homodimer (NR concentration 270 nM), entry ACTATTAGTTGACCTAGGGCAACCGATACGACGC
a: 0.637

q: Using RARa homodimer (NR concentration 270 nM) as the test system, report measured PBM binding z-score of ATCTCAAGGTAACCAAGTTCAGTGAATGCCGAAC .
a: 0.198

q: Report its PBM binding z-score with RARa homodimer (NR concentration 270 nM) as the test system: ACTAGCAGGCCAAGTGTGGGTCACTCAAACAAAG
a: -1.55

q: Fetch value of PBM binding z-score on RARa homodimer (NR concentration 270 nM) for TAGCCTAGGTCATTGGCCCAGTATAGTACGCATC .
a: -0.585

q: For RARa homodimer (NR concentration 270 nM), give the measured PBM binding z-score of the entry GCACACAGGTGAAACGCAGGTAACTCAGGGTGGC
a: -0.648

q: Specify PBM binding z-score for ATATATAGGTTAAGGGTCATTCAGGTTGGTTCGC , system RARa homodimer (NR concentration 270 nM).
a: 3.52

---

system: PPARg:RXRa 30nM:10nM, anti-RXR (NR concentration 30 nM, RXRa partner concentration 10 nM); assay: PBM binding z-score (relative to random genomic background probes); higher = stronger binding; sequences stand for … in GC…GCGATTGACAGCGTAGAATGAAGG
PROPERTY: PBM binding z-score
// no unit, no text: just the number

q: Please give the documented PBM binding z-score of CGAACGAGGGCATGAGTTGATACCAAATGCCGAT
a: 0.555

q: Identify the reported PBM binding z-score for the following entry. CCTTCTGGGCCACGAAAGGTCATTGATTCAGTGA
a: 1.82

q: Give the value of PBM binding z-score reported for the following: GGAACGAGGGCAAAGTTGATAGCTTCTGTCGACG
a: 5.74

q: For the sequence GCTGCTGGGTCAACTGATGGTCAGCTAAAGCTCG , give its measured PBM binding z-score value.
a: 0.519

q: Given GTACCAAGGGGAATAGGTCGTTGATGAGTAGGCG , respond with its PBM binding z-score.
a: 0.0532

q: Give the reported value of PBM binding z-score for this record: TCCGCTAGGTCAGTTGGTCAGCTAACGAGCTGCC
a: 1.2

q: Respond only with PBM binding z-score recorded for CCTACTGGTCCATCAGGTCATTGATATCAACGTT
a: 0.261

q: Respond only with PBM binding z-score recorded for TCTATTAGTTGAAGGGCTACCGACGAGTCCGTTT
a: 3.62

q: Consider the sequence ACTAATAGTTGACTTAGGGCAACCGATACGACGC and give its recorded PBM binding z-score.
a: 0.137

q: Specify reported PBM binding z-score for the sequence shown: TCATATAGGTAATACAGGTGAGAGTCGGCATCTA
a: 3.62

q: Tell me its PBM binding z-score given CAAACTAGGTCAAGGTCAAAGGCGGTTTGTGCCA as the entry.
a: 6.66

q: Report PBM binding z-score, nothing else, for this sequence: CGTCCAAGGTCAAGGTCAGTGTAAGAGACTCGAA
a: 2.39

---

Consider the following sequences; for each one, report its PBM binding z-score.
system: RARb homodimer (NR concentration 270 nM); assay: PBM binding z-score (relative to random genomic background probes); higher = stronger binding; sequences stand for … in GC…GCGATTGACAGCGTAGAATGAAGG
Could you keep your reply to the number by itself?

q: Report PBM binding z-score, nothing else, for this sequence: TGAGTGAGGTTAAAGATCAGGGAACGTGGCGTCG
a: 1.06

q: Give recorded PBM binding z-score. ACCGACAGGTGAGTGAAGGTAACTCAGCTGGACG
a: -0.286

q: Indicate its recorded PBM binding z-score; the sequence in question is CGGCAAAGTTCAACTAAGGTAACGTAAAGCACGC
a: 4

q: Answer with the recorded PBM binding z-score for the sequence listed here: GCTATTAGTTGAAAGGGCAACCGAATGATTCTCG
a: 2.09

q: Query PBM binding z-score for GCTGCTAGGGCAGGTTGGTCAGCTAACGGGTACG
a: 0.705

q: Given the sequence CGAACTAGGTCATCCAGGACAGTGGATACATTGA , write its reported PBM binding z-score.
a: 3.05

q: Consider the sequence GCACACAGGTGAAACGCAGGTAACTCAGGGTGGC and give its recorded PBM binding z-score.
a: 0.327

q: Answer with reported PBM binding z-score of AGTCAAAGTTCATCTAGGTAACGTAAGATATGCT
a: 4.07

q: Quote PBM binding z-score reported for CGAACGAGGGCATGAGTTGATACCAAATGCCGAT please.
a: 1.11

q: Using the record for CTACCAAAGTGAACAAGGTCGTTGATTACTATTC , state its measured PBM binding z-score.
a: 1.32

q: Specify measured PBM binding z-score for TCGAGTAGGTAAGTCGGGGCATTCAGCCAACATA .
a: -0.0679

q: Identify measured PBM binding z-score associated with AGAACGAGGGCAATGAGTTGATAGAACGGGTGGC
a: 0.861

These entries and their values trace back to the supplement of paper PMC6555819.
